Counter-ions that a name gives are not always drawn.
Notes on MIC obtained with S. aureus Col(Meth^R)(lac^-).
One number for each entry, in µg/mL.

>>> experimental_value("N=C(N)SCc1cnccc1SC1=C(C(=O)O)N2C(=O)[C@@H](NC(=O)/C(=N\\OC3CCCC3)c3csc(N)n3)[C@H]2SC1 [Cmpd 8, trifluoroacetic acid salt]")
2

For every item in the list below, what is its measured MIC?
1. NCCSCc1cnccc1SC1=C(C(=O)O)N2C(=O)[C@@H](NC(=O)Cc3ccccc3)[C@H]2SC1.O=C(O)C(F)(F)F
2. NCCSCc1cnccc1SC1=C(C(=O)O)N2C(=O)[C@@H](NC(=O)/C(=N\O)c3nc(N)sc3Br)[C@H]2SC1.O=C(O)C(F)(F)F

Completion:
[1, 1]
